Values from PubChem BioAssay

molecular target: Torsin-1A-interacting protein 1 (Homo sapiens) (UniProt Q5JTV8); test: LAP1 binders from COS7 cell lysate, primary screen, small-molecule microarray, 635/667 nm fluorescence (AID 1116); details: COS7-hLAP1 lysate binding, 635 nm fluorescence, higher = more signal
Sequence (Q5JTV8 whole entry, looked up): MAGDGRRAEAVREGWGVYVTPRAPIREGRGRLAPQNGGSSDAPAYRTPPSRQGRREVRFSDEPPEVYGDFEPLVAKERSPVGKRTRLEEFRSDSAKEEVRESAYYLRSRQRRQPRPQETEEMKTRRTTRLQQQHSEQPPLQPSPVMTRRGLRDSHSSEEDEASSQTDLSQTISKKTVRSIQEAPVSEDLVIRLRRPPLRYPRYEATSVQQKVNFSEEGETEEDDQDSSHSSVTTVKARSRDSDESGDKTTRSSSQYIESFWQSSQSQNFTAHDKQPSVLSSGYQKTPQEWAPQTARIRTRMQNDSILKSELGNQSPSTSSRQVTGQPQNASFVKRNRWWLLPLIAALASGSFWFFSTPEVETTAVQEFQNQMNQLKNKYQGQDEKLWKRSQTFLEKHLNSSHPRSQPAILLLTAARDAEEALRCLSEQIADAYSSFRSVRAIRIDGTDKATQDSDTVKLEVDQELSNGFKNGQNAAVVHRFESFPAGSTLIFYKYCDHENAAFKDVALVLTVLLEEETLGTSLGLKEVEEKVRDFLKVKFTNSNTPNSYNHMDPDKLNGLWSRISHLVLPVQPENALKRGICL
endpoint: composite z-score

chem.smiles: O=C(NCc1ccccc1)[C@@]1(Cc2ccccc2)COC(c2ccc(OCCCO)cc2)=N1
composite z-score: 1.57
--
chem.smiles: CO[C@]12C=C(Br)[C@@H](C[C@@H]1c1ccccc1)[C@@]1(CO1)C2=O
composite z-score: -0.161

Each compound below has a recorded value; state its composite z-score.
1. COc1cc(CO)cc(I)c1O[C@H]1C=C(C(=O)NCCO)C[C@@H](N(CC2CCCCC2)C(=O)c2cc3ccccc3oc2=O)[C@@H]1O
2. CO[C@H]1COC(=O)CC=C[C@H](C)[C@@H](OC)COC(=O)CC=C[C@@H]1C
3. CO[C@H]1COC(=O)[C@@H](C)COC(=O)[C@H](Cc2ccccc2)NC(=O)CC=C[C@H]1C
4. O=C1c2ccccc2[C@@]2(Cc3ccccc3N(CC(F)(F)F)C2=O)[C@H](c2ccc(CO)cc2)N1C1CCCCC1
5. O=C1O[C@H](c2ccccc2)[C@H](c2ccccc2)N2[C@H]1[C@@H](C(=O)Nc1nc3ccccc3s1)[C@]1(C(=O)Nc3ccc(C#CC4(O)CCCCCC4)cc31)[C@H]2c1ccc(O)cc1
6. COc1ccc(-c2ccccc2[C@@H]2N[C@H](C(=O)O)CC[C@H]2C)cc1

[0.646, -0.0807, -0.115, 0.415, 1.58, 0.583]

---

Task for the reader: assign each of the following molecules its reported z-score.
biological target: Luciferin 4-monooxygenase (Photinus pyralis) (UniProt P08659); assay: firefly luciferase enzyme inhibitors, primary screen, biochemical, luminescence, purified enzyme, 2006 set (AID 1141); settings: SteadyGlo luminescence, 30 min, higher = more signal, called active from +8 up or from −8 down;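 further: cell-free assay with purified firefly luciferase at 100 ng per well in PBS; test concentration not given here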
Sequence (P08659 whole entry, looked up): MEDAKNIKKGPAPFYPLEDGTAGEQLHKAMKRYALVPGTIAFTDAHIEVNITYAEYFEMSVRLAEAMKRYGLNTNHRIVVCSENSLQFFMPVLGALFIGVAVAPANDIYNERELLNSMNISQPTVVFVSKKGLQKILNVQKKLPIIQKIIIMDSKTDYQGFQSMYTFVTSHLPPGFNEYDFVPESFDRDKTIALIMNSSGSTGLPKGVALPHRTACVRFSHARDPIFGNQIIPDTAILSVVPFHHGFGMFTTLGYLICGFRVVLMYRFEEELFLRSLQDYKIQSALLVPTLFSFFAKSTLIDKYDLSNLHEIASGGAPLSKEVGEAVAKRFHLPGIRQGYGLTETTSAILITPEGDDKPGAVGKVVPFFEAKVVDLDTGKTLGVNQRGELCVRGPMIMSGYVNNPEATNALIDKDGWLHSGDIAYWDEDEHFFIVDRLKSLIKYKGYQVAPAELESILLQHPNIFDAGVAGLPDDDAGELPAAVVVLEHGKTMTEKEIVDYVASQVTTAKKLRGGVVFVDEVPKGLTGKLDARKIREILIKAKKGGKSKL
Active and inactive are the calls of the source.

Previously resolved entries follow.
chem.smiles: CC1=C([C@H](O)CCc2ccccc2)[C@H](CO)[C@@H]2C(=O)N(Cc3ccccc3)C(=O)[C@@H]2C1
z-score: 0.215 (inactive)
//
chem.smiles: C#CCCCON=C1C[C@@H](O)[C@@H](O)[C@@H]2[C@@H]3C(=O)N(Cc4ccc5c(c4)OCO5)C(=O)[C@@H]3CC[C@@H]12
z-score: 0.76 (inactive)
//
chem.smiles: CC(C)[Si]1(C(C)C)OCc2cc(C3CC3)nc(-c3ccccc3)c21
z-score: -0.525 (inactive)
//
chem.smiles: CO[C@@H]1COC(=O)[C@@H]2CCCN2C(=O)CC=C[C@@H](C)[C@H](OC)COC(=O)[C@@H]2CCCN2C(=O)CC=C[C@H]1C
z-score: -1.44 (inactive)
//
chem.smiles: C=CCNC(=O)[C@H]1[C@@H]2C(=O)O[C@@H](c3ccccc3)[C@@H](c3ccccc3)N2[C@@H](c2ccccc2OCCO)[C@]12C(=O)N(C(=O)OCCOC)c1ccc(C#CCC(C(=O)OC)C(=O)OC)cc12
z-score: -0.509 (inactive)

Each molecule below has a recorded value; state its z-score.
1. CO[C@H]1O[C@H](CO)[C@@H](OC(=O)CCc2ccccc2)[C@@H]2OC(=O)[C@H](Cc3cccc(Br)c3)C/C=C/C[C@@H](Cc3cccc(Br)c3)C(=O)O[C@@H]12
2. CCC#CCN(Cc1ccccc1Br)[C@H](/C=C/c1ccccc1)[C@@H](O)Cc1ccccc1

["-1.07 (inactive)", "-0.686 (inactive)"]

---

test: small-molecule microarray binders of probe aEGFR, primary screen, biochemical, biotinylated probe, 635/667 nm fluorescence (AID 1097); conditions: higher = more signal;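 further: probe is a biotinylated anti-EGFR antibody binding compounds printed on slides; score combines fluorescence near 667 nm and signal to noise of each spot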
Entry flag: Condition met if composite z-score reaches -0.1; Condition not met if it does not.

As a guide, the following entries are already answered.
compound: CCCC/C=C/[C@H]([C@@H](O)Cc1ccccc1)N(CC#Cc1ccccc1)Cc1ccccc1Br
assigned.category: Condition not met
//
compound: C[C@]1(C(=O)NCc2ccccc2)c2ccccc2C(=O)N(Cc2cc(C(F)(F)F)cc(C(F)(F)F)c2)[C@H]1c1ccc(CO)cc1
assigned.category: Condition met
//
compound: C[C@H]1C2[C@H](Cc3ccccc3)NC(=O)[C@]23C(=O)N[C@H](Cc2ccccc2)C(=O)N[C@@H](Cc2ccccc2)C(=O)NC/C=C\C/C=C/C3[C@@H]2O[C@]12C (some centres not stated)
assigned.category: Condition not met
//
compound: COc1cc(Cc2cc3c(c(CCc4ccccc4)n2)[Si](C(C)C)(C(C)C)OC3)cc(OC)c1OC
assigned.category: Condition met

Given COc1cc2c(cc1OC)CN(C(=O)[C@@H]1[C@H]3C(=O)O[C@H](c4ccccc4)[C@H](c4ccccc4)N3[C@H](c3ccccc3OCCO)[C@@]13C(=O)Nc1ccccc13)CC2 , state whether its composite z-score is at least -0.1.
Condition not met

Given COCCOC(=O)N1C(=O)[C@@]2(c3cc(C#CC4=CCCCC4)ccc31)[C@H](C(=O)NC[C@H](O)c1ccccc1)[C@H]1C(=O)O[C@H](c3ccccc3)[C@H](c3ccccc3)N1[C@@H]2c1ccc(OCCO)cc1 , state whether its composite z-score is at least -0.1.
Condition not met

Given C#CCNC(/C=C/c1ccccc1)CO (configuration not stated) , state whether its composite z-score is at least -0.1.
Condition not met

---

Task for the reader: assign each of the following molecules its reported z-score.
test: Plasmodium falciparum growth inhibition, primary screen, strain 3D7, DAPI fluorescence, 100 nL (AID 1184);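 further: parasites grown inside human red blood cells in medium with human serum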; settings: P. falciparum 3D7 growth, 3 d, higher = more signal
Numbers only.

molecule: COC(=O)[C@@]1(Cc2ccccc2N=[N+]=[N-])N=C(c2ccc(OCCCO)cc2)O[C@H]1c1ccccc1CN=[N+]=[N-]
z-score: -2.29
//
molecule: C[N+](C)(C)CCCC[C@@H]1NC(=O)[C@H]2C[C@@H](C(=O)NCc3ccc(F)cc3)[C@@H](c3cccc(OCCO)c3)N2C1=O
z-score: 0.13
//
molecule: O=C1O[C@H](c2ccccc2)[C@H](c2ccccc2)N2[C@H]1[C@@H](C(=O)Nc1nc3ccccc3s1)[C@]1(C(=O)Nc3ccc(C#CC4(O)CCCCCC4)cc31)[C@H]2c1ccc(O)cc1
z-score: -0.416
//
molecule: C=CC(=O)O[C@@H](Cc1ccccc1)[C@H]1C2C=CCCC=C2CN1Cc1cccc(Cl)c1 (some centres undefined)
z-score: -0.0093

Each molecule below has a recorded value; state its z-score.
1. CC(=O)NCCCC[C@@H]1NC(=O)[C@@H]2C[C@H](C(=O)NCCCCCCN(C)C)[C@H](c3ccc(O)cc3)N2C1=O
2. COCCOC(=O)N1C(=O)[C@@]2(c3cc(C#CCNC(N)=O)ccc31)[C@H](C(=O)N1CCCCCCC1)[C@H]1C(=O)O[C@H](c3ccccc3)[C@H](c3ccccc3)N1[C@@H]2c1ccccc1OCCO
3. O=C1C[C@@](C(=O)NC2CC2)(c2ccc([N+](=O)[O-])cc2)[C@@H](c2ccc(CO)cc2I)N1CC12CC3CC(CC(C3)C1)C2

-0.289
-1.87
-1.29

Each molecule below has a recorded value; state its z-score.
1. C[C@@H]1C=CCC(=O)OC[C@H]2O[C@@H](C=C[C@@H]2O)[C@H](C)C=CCC(=O)OC[C@H]2O[C@H]1C=C[C@@H]2O
2. O=C/C=C/c1ccccc1Cl
3. O=C1O[C@@H](c2ccccc2)[C@@H](c2ccccc2)N2[C@@H](c3ccc(O)cc3)[C@]3(C(=O)Nc4ccc(C#CC5(O)CCCCCC5)cc43)[C@@H](C(=O)Nc3nc4ccccc4s3)[C@H]12

1. -2.25
2. 0.316
3. -0.697

---

target: Calmodulin-1 (Homo sapiens) (UniProt P0DP23); assay: CALM1 binders on microarrays, EGTA buffer, profiling panel, biochemical, small-molecule microarray, Cy5-labelled CALM1 (AID 1111); conditions: Cy5-CALM1 binding fluorescence, higher = more signal;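 further: labelled calmodulin applied in Tris saline Tween buffer holding calcium plus EGTA and DTT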
Entry flag: fulfilled if composite z-score reaches 0.1; not fulfilled if it does not.

Given COC(=O)C(CC#Cc1ccc2c(c1)[C@]1(C(=O)N2)[C@H](C(=O)N2CCCCCCC2)[C@H]2C(=O)O[C@H](c3ccccc3)[C@H](c3ccccc3)N2[C@@H]1c1ccc(O)cc1)C(=O)OC , state whether its composite z-score is at least 0.1.
not fulfilled

Given COCCOC(=O)N1C(=O)[C@@]2(c3cc(C#CCNC(N)=O)ccc31)[C@H](c1ccc(OCCO)cc1)N1[C@H](c3ccccc3)[C@H](c3ccccc3)OC(=O)[C@H]1[C@@H]2C(=O)Nc1nc2ccccc2s1 , state whether its composite z-score is at least 0.1.
fulfilled

Given COc1cccc([C@@H]2[C@@H](C)CC[C@H]3C(=O)N4[C@H](c5cccc(OC)c5)[C@@H](C)CC[C@H]4C(=O)N23)c1 , state whether its composite z-score is at least 0.1.
not fulfilled

Given O=C1NC(=O)C2C1C=CC(C(O)C=Cc1ccc([N+](=O)[O-])cc1)N2Nc1ccccn1 (stereo unspecified) , state whether its composite z-score is at least 0.1.
not fulfilled

Given Cc1ccc(S(=O)(=O)c2cc3oc2CC[C@@H](CO)NC(=O)N(C)Cc2cn(nn2)C[C@H](Cc2ccccc2)NC3=O)cc1 , state whether its composite z-score is at least 0.1.
fulfilled

Given NC(=O)NCC#Cc1ccc2c(c1)[C@]1(C(=O)N2)[C@H](C(N)=O)[C@H]2C(=O)O[C@H](c3ccccc3)[C@H](c3ccccc3)N2[C@@H]1c1ccccc1OCCO , state whether its composite z-score is at least 0.1.
fulfilled

Given NC(=O)[C@H]1[C@@H]2C(=O)O[C@@H](c3ccccc3)[C@@H](c3ccccc3)N2[C@@H](c2ccc(O)cc2)[C@]12C(=O)Nc1ccc(C#CCCO)cc12 , state whether its composite z-score is at least 0.1.
not fulfilled

Given CCN1C(C)=C(C(=O)OC)[C@@H](c2ccccc2)N2C(=O)[C@@]3(C(=O)OC)O[C@@]12[C@@H]1C(=O)N(c2ccccc2)C(=O)[C@@H]13 , state whether its composite z-score is at least 0.1.
not fulfilled
